# STUDY SYSTEM: T1, polypeptide GC3pep (human)
# T1 construct: also called membrane proximal polypeptide GC3pep
# T1 peptide: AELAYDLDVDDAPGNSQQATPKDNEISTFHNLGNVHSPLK
# PROTOCOL NOTES: ELISA, GC3pep coated, antibody 100 nM;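 also: detection with an HRP-conjugated secondary antibody and TMB substrate, color reaction stopped with HCl before absorbance reading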
MEASURED QUANTITY: OD450 nm (OD450 nm)
Answer in OD450 nm, number only, no unit symbol.

Worked set:
F1.92.17 (antibody, human IgG1, kappa, V domains shown, human-murine chimeric antibody) VH: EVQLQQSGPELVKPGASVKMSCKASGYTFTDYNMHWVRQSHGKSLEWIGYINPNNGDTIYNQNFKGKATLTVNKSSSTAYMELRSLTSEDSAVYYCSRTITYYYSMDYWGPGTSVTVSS VL: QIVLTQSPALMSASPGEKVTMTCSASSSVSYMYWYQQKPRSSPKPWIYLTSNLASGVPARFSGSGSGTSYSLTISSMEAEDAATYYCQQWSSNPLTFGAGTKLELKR: 0.1
F3.54.12 (antibody, human IgG1, kappa, V domains shown, human-murine chimeric antibody) VH: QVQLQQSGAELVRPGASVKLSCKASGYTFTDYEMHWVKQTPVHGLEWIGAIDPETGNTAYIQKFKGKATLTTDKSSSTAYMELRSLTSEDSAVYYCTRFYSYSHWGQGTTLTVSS VL: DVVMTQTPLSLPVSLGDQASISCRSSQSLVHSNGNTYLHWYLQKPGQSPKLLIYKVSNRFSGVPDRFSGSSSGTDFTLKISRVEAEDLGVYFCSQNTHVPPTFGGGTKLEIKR: 3.03
F1.3.9 (antibody, human IgG1, kappa, V domains shown, human-murine chimeric antibody) VH: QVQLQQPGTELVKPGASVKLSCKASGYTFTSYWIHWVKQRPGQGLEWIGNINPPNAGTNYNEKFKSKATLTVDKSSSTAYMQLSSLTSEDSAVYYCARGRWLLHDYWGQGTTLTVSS VL: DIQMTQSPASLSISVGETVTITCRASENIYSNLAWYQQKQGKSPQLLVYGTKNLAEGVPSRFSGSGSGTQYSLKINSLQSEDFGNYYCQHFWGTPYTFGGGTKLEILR: 0.13

**Query** Value lookup for OD450 nm; key = F1.9.19 (antibody, human IgG1, kappa, V domains shown, human-murine chimeric antibody) VH: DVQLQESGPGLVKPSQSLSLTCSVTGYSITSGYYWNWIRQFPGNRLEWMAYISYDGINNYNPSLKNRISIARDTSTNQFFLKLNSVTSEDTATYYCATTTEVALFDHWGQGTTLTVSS VL: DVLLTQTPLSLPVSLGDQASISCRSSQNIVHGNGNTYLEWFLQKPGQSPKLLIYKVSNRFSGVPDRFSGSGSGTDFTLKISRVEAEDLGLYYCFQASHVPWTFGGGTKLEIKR
**Result** 0.08
